Assay Target: T1, SWSAP1 K18A (Walker A);hSWS1 (Homo sapiens;Homo sapiens, UniProt Q6NVH7;Q19AV6 22-250;1-140, K39A|)
T1 sequence 1: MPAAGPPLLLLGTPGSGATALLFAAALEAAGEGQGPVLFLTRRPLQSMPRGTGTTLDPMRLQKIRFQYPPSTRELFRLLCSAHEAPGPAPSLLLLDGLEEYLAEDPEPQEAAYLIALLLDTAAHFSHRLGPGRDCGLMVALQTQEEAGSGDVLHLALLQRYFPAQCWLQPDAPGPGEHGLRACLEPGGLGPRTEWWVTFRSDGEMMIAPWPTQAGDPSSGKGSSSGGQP
T1 sequence 2: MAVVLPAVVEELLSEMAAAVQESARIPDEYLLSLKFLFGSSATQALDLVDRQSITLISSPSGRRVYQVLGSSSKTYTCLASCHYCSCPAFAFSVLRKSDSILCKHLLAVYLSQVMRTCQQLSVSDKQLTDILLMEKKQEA
Assay Name: fluorescence polarization; 2 mM ADP; FPA: 5 nM 6-FAM DNA, 37 C, 2 mM nucleotide where stated (buffer not given in material); EMSA: 0.05 uM 6-FAM DNA, 5%/15% native PAGE; RAD51 filaments: 2 mM ATP
Run Conditions: protein: recombinant;recombinant; tags: N-terminal 6xHis-TEV, cleaved;none; copies: 1;1; label: 3' 6-FAM on strand 1; 5' overhang 20 nt
Assay Endpoint: Kd

1. 5'-overhang (dsDNA) DNA 1: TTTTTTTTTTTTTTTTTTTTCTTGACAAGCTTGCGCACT DNA 2: AGTGCGCAAGCTTGTCAAG
3.4 µM
